Values compiled from ChEMBL document CHEMBL4261643.

assayMethodText: Partition coefficient, log D of the compound at pH 7.4 after 30 mins by shake-flask method
Type: physicochemical
testContext: octanol/water
Kind request: treat 2 as inclusive, so logD at 0.5 h at 2 or higher is Criterion met, anything lower is Criterion not met.

Take a look at these entries with their results.
Q: logD at 0.5 h >= 2 for `CN(C)C(=O)CNCCc1cccc(OCCCC(C)(F)F)c1.Cl` ?
A: Criterion not met

Q: Please check the record `CCCCOc1cccc(CCNCC(=O)N(C)C)c1.Cl` and state if its logD at 0.5 h is at or above 2.
A: Criterion not met

Q: Say whether `CN(C)C(=O)CNCCc1cccc(OCC(F)(F)C(F)(F)C(C)(F)F)c1.Cl` shows logD at 0.5 h of 2 or more.
A: Criterion met

Q: Evaluate `CN(C)C(=O)CNCCc1cccc(OCCC(C)(F)F)c1.Cl` : logD at 0.5 h at minimum 2?
A: Criterion not met

New cases:
Q: Could you please find out whether `CN(C)C(=O)CNCCc1cccc(OCC(F)(F)C(C)(F)F)c1.Cl` has logD at 0.5 h that meets 2 or exceeds it?
A: Criterion not met

Q: Can `CCCCCOc1cccc(CCNCC(=O)N(C)C)c1.Cl` be said to have logD at 0.5 h at or above 2?
A: Criterion met

Q: Reported logD at 0.5 h reaches at least 2 for `CN(C)C(=O)CNCCc1cccc(OCC(F)(F)C(F)(F)C(F)(F)F)c1.Cl` ?
A: Criterion met

* * *

assayMethodText: Fraction unbound in 10% human plasma after 18 hrs by LC-MS/MS analysis
Assay type: ADME, cell-free
Field 'label' (enum: satisfied / not satisfied). Set to satisfied when fraction unbound at 18 h is strictly under 0.5; else not satisfied.

Use these answered entries as a reference point.
Q: Given `CN(C)C(=O)CNCCc1cccc(OCC(F)(F)C(F)(F)C(F)(F)F)c1.Cl` , is recorded fraction unbound at 18 h strictly lower than 0.5?
A: satisfied

Q: Identify whether the compound `CCCCOc1cccc(CCNCC(=O)N(C)C)c1.Cl` records fraction unbound at 18 h below 0.5.
A: satisfied

Q: # check: fraction unbound at 18 h < 0.5 for `CCCCCOc1cccc(CCNCC(=O)N(C)C)c1.Cl`
A: satisfied

Others:
Q: Is the reported fraction unbound at 18 h for `CN(C)C(=O)CNCCc1cccc(OCCC(C)(F)F)c1.Cl` strictly below 0.5?
A: not satisfied

Q: I wonder whether `CN(C)C(=O)CNCCc1cccc(OCC(F)(F)C(F)(F)C(C)(F)F)c1.Cl` has fraction unbound at 18 h below 0.5. Can you tell?
A: satisfied
